A collection of compounds and their measured pIC50
# System: KARPAS-299
# Measurement Description: Cytotoxicity against human KARPAS-299 cells assessed as inhibition of cell proliferation incubated for 4 hrs by MTS assay
# Format: functional, cell-based
# Condition Context: KARPAS-299, 4 h
pIC50: −log10 of the molar value. Where a SMILES comes first, the peptide text is derived from it. [ ]: non-standard residue; d: D form. ξ: configuration not given here. Bip = N[C@@H](Cc1ccc(-c2ccccc2)cc1)C(=O)O; ξBip = NC(Cc1ccc(-c2ccccc2)cc1)C(=O)O; ξDip = NC(C(=O)O)C(c1ccccc1)c1ccccc1
Assay Endpoint: pIC50

{"Compound": "NCCCC[C@H](NC(=O)[C@H](Cc1c[nH]c2ccccc12)NC(=O)[C@H](Cc1c[nH]c2ccccc12)NC(=O)[C@H](CCCCN)NC(=O)[C@H](CCCCN)NC(=O)[C@H](Cc1c[nH]c2ccccc12)NC(=O)[C@H](Cc1ccc(-c2ccccc2)cc1)NC(=O)[C@H](CCCCN)NC(=O)[C@@H](N)CCCCN)C(N)=O (H-KK[Bip]WKKWWK-NH2)", "Reported": 5.06}
{"Compound": "NCCCC[C@H](NC(=O)[C@H](Cc1c[nH]c2ccccc12)NC(=O)[C@H](Cc1c[nH]c2ccccc12)NC(=O)[C@H](CCCCN)NC(=O)[C@H](CCCCN)NC(=O)[C@H](Cc1c[nH]c2ccccc12)NC(=O)C(Cc1ccc(-c2ccccc2)cc1)NC(=O)[C@H](CCCCN)NC(=O)[C@@H](N)CCCCN)C(N)=O (stereo not given in full) (H-KK[ξBip]WKKWWK-NH2)", "Reported": 5.00}
{"Compound": "N=C(N)NCCC[C@H](NC(=O)[C@H](Cc1c[nH]c2ccccc12)NC(=O)[C@H](Cc1c[nH]c2ccccc12)NC(=O)[C@H](CCCNC(=N)N)NC(=O)[C@H](CCCNC(=N)N)NC(=O)C(NC(=O)[C@H](Cc1c[nH]c2ccccc12)NC(=O)[C@H](CCCNC(=N)N)NC(=O)[C@@H](N)CCCNC(=N)N)C(c1ccccc1)c1ccccc1)C(N)=O (stereo not given in full) (H-RRW[ξDip]RRWWR-NH2)", "Reported": 5.09}
{"Compound": "NCCCC[C@H](NC(=O)[C@H](Cc1c[nH]c2ccccc12)NC(=O)[C@H](CCCCN)NC(=O)[C@H](CCCCN)NC(=O)C(NC(=O)[C@H](Cc1c[nH]c2ccccc12)NC(=O)[C@H](CCCCN)NC(=O)[C@H](CCCCN)NC(=O)[C@@H](N)Cc1c[nH]c2ccccc12)C(c1ccccc1)c1ccccc1)C(N)=O (stereo not given in full) (H-WKKW[ξDip]KKWK-NH2)", "Reported": 4.94}
{"Compound": "NCCCC[C@H](NC(=O)C(NC(=O)[C@H](Cc1c[nH]c2ccccc12)NC(=O)[C@H](CCCCN)NC(=O)[C@H](CCCCN)NC(=O)[C@H](Cc1c[nH]c2ccccc12)NC(=O)[C@H](Cc1c[nH]c2ccccc12)NC(=O)[C@H](CCCCN)NC(=O)[C@@H](N)CCCCN)C(c1ccccc1)c1ccccc1)C(N)=O (stereo not given in full) (H-KKWWKKW[ξDip]K-NH2)", "Reported": 5.32}

====

# Measurement Description: Cytotoxicity against human HUVEC-C cells assessed as inhibition of cell proliferation incubated for 4 hrs by MTS assay
# Assay type: toxicity, cell-based
Where a SMILES comes first, the peptide text is derived from it. [ ]: non-standard residue; d: D form. ξ: configuration not given here. Bip = N[C@@H](Cc1ccc(-c2ccccc2)cc1)C(=O)O; ξBip = NC(Cc1ccc(-c2ccccc2)cc1)C(=O)O; ξDip = NC(C(=O)O)C(c1ccccc1)c1ccccc1
// NB: equality with 30 µM counts as class 0; only IC50 at 4 h strictly below is class 1

{"Compound": "NCCCC[C@H](NC(=O)[C@H](Cc1c[nH]c2ccccc12)NC(=O)[C@H](CCCCN)NC(=O)[C@H](CCCCN)NC(=O)C(NC(=O)[C@H](Cc1c[nH]c2ccccc12)NC(=O)[C@H](CCCCN)NC(=O)[C@H](CCCCN)NC(=O)[C@@H](N)Cc1c[nH]c2ccccc12)C(c1ccccc1)c1ccccc1)C(N)=O (stereo not given in full) (H-WKKW[ξDip]KKWK-NH2)", "Discrete Label": "class 0"}
{"Compound": "NCCCC[C@H](NC(=O)[C@H](Cc1c[nH]c2ccccc12)NC(=O)[C@H](Cc1c[nH]c2ccccc12)NC(=O)[C@H](CCCCN)NC(=O)[C@H](CCCCN)NC(=O)[C@H](Cc1c[nH]c2ccccc12)NC(=O)C(Cc1ccc(-c2ccccc2)cc1)NC(=O)[C@H](CCCCN)NC(=O)[C@@H](N)CCCCN)C(N)=O (stereo not given in full) (H-KK[ξBip]WKKWWK-NH2)", "Discrete Label": "class 0"}
{"Compound": "NCCCC[C@H](NC(=O)C(NC(=O)[C@H](Cc1c[nH]c2ccccc12)NC(=O)[C@H](CCCCN)NC(=O)[C@H](CCCCN)NC(=O)[C@H](Cc1c[nH]c2ccccc12)NC(=O)[C@H](Cc1c[nH]c2ccccc12)NC(=O)[C@H](CCCCN)NC(=O)[C@@H](N)CCCCN)C(c1ccccc1)c1ccccc1)C(N)=O (stereo not given in full) (H-KKWWKKW[ξDip]K-NH2)", "Discrete Label": "class 1"}
{"Compound": "N=C(N)NCCC[C@H](NC(=O)[C@H](Cc1c[nH]c2ccccc12)NC(=O)[C@H](Cc1c[nH]c2ccccc12)NC(=O)[C@H](CCCNC(=N)N)NC(=O)[C@H](CCCNC(=N)N)NC(=O)C(NC(=O)[C@H](Cc1c[nH]c2ccccc12)NC(=O)[C@H](CCCNC(=N)N)NC(=O)[C@@H](N)CCCNC(=N)N)C(c1ccccc1)c1ccccc1)C(N)=O (stereo not given in full) (H-RRW[ξDip]RRWWR-NH2)", "Discrete Label": "class 1"}
{"Compound": "NCCCC[C@H](NC(=O)[C@H](Cc1c[nH]c2ccccc12)NC(=O)[C@H](Cc1c[nH]c2ccccc12)NC(=O)[C@H](CCCCN)NC(=O)[C@H](CCCCN)NC(=O)[C@H](Cc1c[nH]c2ccccc12)NC(=O)[C@H](Cc1ccc(-c2ccccc2)cc1)NC(=O)[C@H](CCCCN)NC(=O)[C@@H](N)CCCCN)C(N)=O (H-KK[Bip]WKKWWK-NH2)", "Discrete Label": "class 0"}
